The measured values listed here are drawn from patent US9845330B2.

System: M. tuberculosis H37Rv (ATCC 27294)
Assay: MIC by broth dilution method, M. tuberculosis H37Rv
Assay type: cell-based
Conditions: Mycobacterium tuberculosis, 504 h, broth dilution, 3 weeks; read-out: MIC M. tb H37Rv
Provide the recorded MIC for the entries that follow.
One number for each entry, in µg/mL.

Example entries begin here.
{"compound": "C[C@]1(COc2ccc(-c3cc(COc4ccc(C(F)(F)F)cc4)on3)cc2)Cn2cc([N+](=O)[O-])nc2O1", "MIC (µg/mL)": 0.25}
{"compound": "C[C@]1(COc2ccc(S(=O)(=O)N3CCCC3)cc2)Cn2cc([N+](=O)[O-])nc2O1", "MIC (µg/mL)": 1}
{"compound": "Cc1ccc(NS(=O)(=O)c2ccc(OC[C@@]3(C)Cn4cc([N+](=O)[O-])nc4O3)cc2)cc1", "MIC (µg/mL)": 2}
{"compound": "CCC(C)c1ccc(OCc2cn(-c3ccc(OC[C@@]4(C)Cn5cc([N+](=O)[O-])nc5O4)cc3)nn2)cc1 (stereo partly drawn)", "MIC (µg/mL)": 0.12}
{"compound": "C[C@]1(COc2ccc(-c3cc(COc4ccccc4)on3)cc2)Cn2cc([N+](=O)[O-])nc2O1", "MIC (µg/mL)": 4}

The compound listed as CCc1ccc(-c2nnnn2-c2ccc(OC[C@@]3(C)Cn4cc([N+](=O)[O-])nc4O3)cc2)cc1 has a reported MIC of 2

* * *

Provide the recorded MIC for the entries that follow.
Tested on: M. tuberculosis H37Rv (ATCC 27294)
Assay: MIC by broth dilution method, M. tuberculosis H37Rv
Format: cell-based
Details: Mycobacterium tuberculosis, 504 h, broth dilution, 3 weeks; read-out: MIC M. tb H37Rv
Give bare numbers, in µg/mL.

Example entries begin here.
{"item-smiles": "COc1ccc(NC(=O)Nc2ccc(OC[C@@]3(C)Cn4cc([N+](=O)[O-])nc4O3)cc2)cc1", "MIC, µg/mL": 1}
{"item-smiles": "Cc1ccc(NC(=O)Nc2ccc(OC[C@@]3(C)Cn4cc([N+](=O)[O-])nc4O3)cc2)cc1", "MIC, µg/mL": 0.06}
{"item-smiles": "C[C@]1(COc2ccc(S(=O)(=O)N3CCN(c4ccccc4)CC3)cc2)Cn2cc([N+](=O)[O-])nc2O1", "MIC, µg/mL": 1}
{"item-smiles": "C[C@]1(COc2ccc(NC(=O)Nc3ccc(C(F)(F)F)cc3)cc2)Cn2cc([N+](=O)[O-])nc2O1", "MIC, µg/mL": 0.12}

Batch request: MIC per item, same order as input.
1. C[C@]1(COc2ccc(-c3cc(COc4ccc(F)cc4F)on3)cc2)Cn2cc([N+](=O)[O-])nc2O1
2. C[C@]1(COc2cccc(-n3cc(-c4ccc(F)cc4F)nn3)c2)Cn2cc([N+](=O)[O-])nc2O1
3. C[C@]1(COc2ccccc2-n2cc(-c3ccc(C(F)(F)F)cc3)nn2)Cn2cc([N+](=O)[O-])nc2O1
4. CN(c1ccc(C(F)(F)F)cc1)S(=O)(=O)c1ccc(OC[C@@]2(C)Cn3cc([N+](=O)[O-])nc3O2)cc1
5. C[C@]1(COc2cccc(-n3cc(-c4ccc(F)cc4)nn3)c2)Cn2cc([N+](=O)[O-])nc2O1
6. Cc1ccc(-c2nnnn2-c2ccc(OC[C@@]3(C)Cn4cc([N+](=O)[O-])nc4O3)cc2)cc1

[0.12, 4, 4, 1, 2, 4]

Batch request: MIC per item, same order as input.
1. C[C@]1(COc2ccccc2-n2cc(COc3ccc(F)cc3)nn2)Cn2cc([N+](=O)[O-])nc2O1
2. C[C@]1(COc2ccc(S(=O)(=O)N3CCN(C(=O)c4ccccc4)CC3)cc2)Cn2cc([N+](=O)[O-])nc2O1
3. CCOC(=O)N1CCN(S(=O)(=O)c2ccc(OC[C@@]3(C)Cn4cc([N+](=O)[O-])nc4O3)cc2)CC1
4. Cc1ccc(OCc2cn(-c3ccc(OC[C@@]4(C)Cn5cc([N+](=O)[O-])nc5O4)cc3)nn2)cc1
5. C[C@]1(COc2ccc(NC(=S)Nc3ccc(C(F)(F)F)cc3)cc2)Cn2cc([N+](=O)[O-])nc2O1

[4, 2, 2, 32, 4]

Batch request: MIC per item, same order as input.
1. Cc1ccc(-c2cc(-c3ccc(OC[C@@]4(C)Cn5cc([N+](=O)[O-])nc5O4)cc3)no2)cc1
2. CC(C)c1ccc(-c2cn(-c3ccc(OC[C@@]4(C)Cn5cc([N+](=O)[O-])nc5O4)cc3)nn2)cc1
3. C[C@]1(COc2ccc(-n3nnnc3-c3ccc(C(F)(F)F)cc3)cc2)Cn2cc([N+](=O)[O-])nc2O1
4. C[C@]1(COc2ccc(-n3cc(-c4ccc(F)cc4)nn3)cc2)Cn2cc([N+](=O)[O-])nc2O1

1: 1; 2: 1; 3: 1; 4: 0.25
